tested on: UACC-257; experiment: cells; details: Homo sapiens, UACC-257, 48 h, read-out: LC50
// reported CC50 per item
RECORDED_ENDPOINT: CC50 (µM)

[[record]]
molecule = "CN(C)c1nc(NCCNS(=O)(=O)c2ccc(C(=O)/C=C/c3ccc(C(F)(F)F)cc3)cc2)nc(Nc2ccc(F)cc2)n1 [24g]"
uom = "µM"
value_modifier = "="
reported = 25

[[record]]
molecule = "CN(C)c1nc(NCCNS(=O)(=O)c2ccc(C(=O)/C=C/c3ccc(F)cc3)cc2)nc(Nc2ccc(F)cc2)n1 [24f]"
uom = "µM"
value_modifier = "="
reported = 15.2

[[record]]
molecule = "CN(C)c1nc(NCCNS(=O)(=O)c2ccc(C3=Nc4c(N)nc(N)nc4NC(c4ccc(Cl)cc4)C3)cc2)nc(Nc2ccc(F)cc2)n1 (stereo not shown) [31e]"
uom = "µM"
value_modifier = ">"
reported = 100

[[record]]
molecule = "CN(C)c1nc(NCCNS(=O)(=O)c2ccc(C3=Nc4c(N)nc(N)nc4NC(c4ccccc4)C3)cc2)nc(Nc2ccc(F)cc2)n1 (stereo not shown) [31a]"
uom = "µM"
value_modifier = ">"
reported = 100


====

// reported CC50 per item
system: SNB-19; experiment: cells; conditions: Homo sapiens, SNB-19, 48 h, read-out: LC50
RECORDED_ENDPOINT: CC50

[[record]]
molecule = "Cc1ccc(C2CC(c3ccc(Nc4nc(NCCO)nc(Nc5ccc(Cl)cc5)n4)cc3)=Nc3c(N)nc(N)nc3N2)cc1 (stereo not shown) [33b]"
reported = "5.75 µM"

[[record]]
molecule = "COc1cc(/C=C/C(=O)c2ccc(S(=O)(=O)NCCNc3nc(N(C)C)nc(N4CCOCC4)n3)cc2)cc(OC)c1OC [23d]"
reported = "41.7 µM"

[[record]]
molecule = "CN(C)c1nc(NCCNS(=O)(=O)c2ccc(C3=Nc4c(N)nc(N)nc4NC(c4ccccc4)C3)cc2)nc(Nc2ccc(F)cc2)n1 (stereo not shown) [31a]"
reported = "> 100 µM"

[[record]]
molecule = "COc1cc(/C=C/C(=O)c2ccc(S(=O)(=O)NCCNc3nc(Nc4ccc(F)cc4)nc(N(C)C)n3)cc2)cc(OC)c1OC [24d]"
reported = "48.7 µM"

[[record]]
molecule = "CN(C)c1nc(NCCNS(=O)(=O)c2ccc(C(=O)/C=C/c3ccccc3)cc2)nc(N2CCOCC2)n1 [23a]"
reported = "57.3 µM"

[[record]]
molecule = "CN(C)c1nc(NCCNS(=O)(=O)c2ccc(C(=O)/C=C/c3ccccc3)cc2)nc(Nc2ccc(F)cc2)n1 [24a]"
reported = "51 µM"

[[record]]
molecule = "CN(C)c1nc(NCCNS(=O)(=O)c2ccc(C3=Nc4c(N)nc(N)nc4NC(c4ccc(Cl)cc4)C3)cc2)nc(Nc2ccc(F)cc2)n1 (stereo not shown) [31e]"
reported = "> 100 µM"


====

system: NCI-H460
// reported GI50 per item
RECORDED_ENDPOINT: GI50 (µM)

[[record]]
molecule = "COc1cc(/C=C/C(=O)c2ccc(C)cc2)ccc1Oc1nc(Nc2ccc(F)cc2)nc(N(C)C)n1 [21b]"
recorded_endpoint = "GI50"
reported = 12.1

[[record]]
molecule = "Nc1nc(N)c2c(n1)NC(c1ccc(C(F)(F)F)cc1)CC(c1ccc(Nc3nc(NCCO)nc(Nc4ccc(Cl)cc4)n3)cc1)=N2 (stereo not drawn) [33g]"
recorded_endpoint = "GI50"
reported = 1.96

[[record]]
molecule = "CN(C)c1nc(NCCNS(=O)(=O)c2ccc(C(=O)/C=C/c3ccc(C(F)(F)F)cc3)cc2)nc(N2CCOCC2)n1 [23g]"
recorded_endpoint = "GI50"
reported = 16.1

[[record]]
molecule = "COc1cc(/C=C/C(=O)c2ccccc2)ccc1Oc1nc(Nc2ccc(F)cc2)nc(N(C)C)n1 [21a]"
recorded_endpoint = "GI50"
reported = 9.14

[[record]]
molecule = "CN(C)c1nc(NCCNS(=O)(=O)c2ccc(C(=O)/C=C/c3ccc(Cl)cc3)cc2)nc(Nc2ccc(F)cc2)n1 [24e]"
recorded_endpoint = "GI50"
reported = 3.38

[[record]]
molecule = "CN(C)c1nc(NCCNS(=O)(=O)c2ccc(C3=Nc4c(N)nc(N)nc4NC(c4ccc(C(F)(F)F)cc4)C3)cc2)nc(N2CCOCC2)n1 (stereo not drawn) [30g]"
recorded_endpoint = "GI50"
reported = 36.5

[[record]]
molecule = "COc1cc(C2CC(c3ccc(Cl)cc3)=Nc3c(N)nc(N)nc3N2)ccc1Oc1nc(Nc2ccc(F)cc2)nc(N(C)C)n1 (stereo not drawn) [29e]"
recorded_endpoint = "GI50"
reported = 42.3

[[record]]
molecule = "Nc1nc(N)c2c(n1)NC(c1ccc(Cl)cc1)CC(c1ccc(Nc3nc(NCCO)nc(Nc4ccc(Cl)cc4)n3)cc1)=N2 (stereo not drawn) [33e]"
recorded_endpoint = "GI50"
reported = 1.72

[[record]]
molecule = "Nc1nc(N)c2c(n1)NC(c1ccc(F)cc1)CC(c1ccc(Nc3nc(NCCO)nc(Nc4ccc(Cl)cc4)n3)cc1)=N2 (stereo not drawn) [33f]"
recorded_endpoint = "GI50"
reported = 1.71

[[record]]
molecule = "CN(C)c1nc(NCCNS(=O)(=O)c2ccc(C(=O)/C=C/c3ccc(C(F)(F)F)cc3)cc2)nc(Nc2ccc(F)cc2)n1 [24g]"
recorded_endpoint = "GI50"
reported = 4.09

[[record]]
molecule = "Cc1ccc(C2CC(c3ccc(Nc4nc(NCCO)nc(Nc5ccc(Cl)cc5)n4)cc3)=Nc3c(N)nc(N)nc3N2)cc1 (stereo not drawn) [33b]"
recorded_endpoint = "GI50"
reported = 1.8

[[record]]
molecule = "COc1cc(/C=C/C(=O)c2ccc(S(=O)(=O)NCCNc3nc(Nc4ccc(F)cc4)nc(N(C)C)n3)cc2)cc(OC)c1OC [24d]"
recorded_endpoint = "GI50"
reported = 5.12

[[record]]
molecule = "COc1cc(/C=C/C(=O)c2cc(OC)c(OC)c(OC)c2)ccc1Oc1nc(Nc2ccc(F)cc2)nc(N(C)C)n1 [21d]"
recorded_endpoint = "GI50"
reported = 1.45

[[record]]
molecule = "COc1cc(/C=C/C(=O)c2cc(OC)c(OC)c(OC)c2)ccc1Oc1nc(NCCO)nc(N2CCOCC2)n1 [20d]"
recorded_endpoint = "GI50"
reported = 1.87

[[record]]
molecule = "COc1ccc(/C=C/C(=O)c2ccc(S(=O)(=O)NCCNc3nc(Nc4ccc(F)cc4)nc(N(C)C)n3)cc2)cc1 [24c]"
recorded_endpoint = "GI50"
reported = 4.11


====

test system: TK-10
Rule: GI50 below 5 µM gives rule met, anything at or above gives rule not met.

[[record]]
compound = "CN(C)c1nc(NCCNS(=O)(=O)c2ccc(C(=O)/C=C/c3ccc(F)cc3)cc2)nc(Nc2ccc(F)cc2)n1 [24f]"
group_label = "rule met"

[[record]]
compound = "Cc1ccc(/C=C/C(=O)c2ccc(S(=O)(=O)NCCNc3nc(Nc4ccc(F)cc4)nc(N(C)C)n3)cc2)cc1 [24b]"
group_label = "rule not met"

[[record]]
compound = "COc1cc(C2CC(c3ccc(Cl)cc3)=Nc3c(N)nc(N)nc3N2)ccc1Oc1nc(Nc2ccc(F)cc2)nc(N(C)C)n1 (stereo not shown) [29e]"
group_label = "rule not met"

[[record]]
compound = "CN(C)c1nc(NCCNS(=O)(=O)c2ccc(C3=Nc4c(N)nc(N)nc4NC(c4ccc(F)cc4)C3)cc2)nc(Nc2ccc(F)cc2)n1 (stereo not shown) [31f]"
group_label = "rule not met"

[[record]]
compound = "CN(C)c1nc(NCCNS(=O)(=O)c2ccc(C(=O)/C=C/c3ccc(C(F)(F)F)cc3)cc2)nc(N2CCOCC2)n1 [23g]"
group_label = "rule not met"

[[record]]
compound = "Cc1ccc(C2CC(c3ccc(Nc4nc(NCCO)nc(Nc5ccc(Cl)cc5)n4)cc3)=Nc3c(N)nc(N)nc3N2)cc1 (stereo not shown) [33b]"
group_label = "rule met"

[[record]]
compound = "Nc1nc(N)c2c(n1)NC(c1ccccc1)CC(c1ccc(Nc3nc(NCCO)nc(Nc4ccc(Cl)cc4)n3)cc1)=N2 (stereo not shown) [33a]"
group_label = "rule met"


====

// reported CC50 per item
test system: A549/ATCC; experiment: cells; settings: Homo sapiens, A549, 48 h, read-out: LC50
RECORDED_ENDPOINT: CC50 (µM)

[[record]]
molecule = "Nc1nc(N)c2c(n1)NC(c1ccccc1)CC(c1ccc(Nc3nc(NCCO)nc(Nc4ccc(Cl)cc4)n3)cc1)=N2 (stereo not shown) [33a]"
recorded_endpoint = "CC50"
uom = "µM"
value_modifier = ">"
reported = 100

[[record]]
molecule = "CN(C)c1nc(NCCNS(=O)(=O)c2ccc(C3=Nc4c(N)nc(N)nc4NC(c4ccccc4)C3)cc2)nc(Nc2ccc(F)cc2)n1 (stereo not shown) [31a]"
recorded_endpoint = "CC50"
uom = "µM"
value_modifier = ">"
reported = 100

[[record]]
molecule = "Cc1ccc(/C=C/C(=O)c2ccc(S(=O)(=O)NCCNc3nc(Nc4ccc(F)cc4)nc(N(C)C)n3)cc2)cc1 [24b]"
recorded_endpoint = "CC50"
uom = "µM"
value_modifier = "="
reported = 77.7

[[record]]
molecule = "COc1cc(C2CC(c3ccc(Cl)cc3)=Nc3c(N)nc(N)nc3N2)ccc1Oc1nc(Nc2ccc(F)cc2)nc(N(C)C)n1 (stereo not shown) [29e]"
recorded_endpoint = "CC50"
uom = "µM"
value_modifier = ">"
reported = 100

[[record]]
molecule = "Nc1nc(N)c2c(n1)NC(c1ccc(C(F)(F)F)cc1)CC(c1ccc(Nc3nc(NCCO)nc(Nc4ccc(Cl)cc4)n3)cc1)=N2 (stereo not shown) [33g]"
recorded_endpoint = "CC50"
uom = "µM"
value_modifier = "="
reported = 7.08

[[record]]
molecule = "COc1cc(/C=C/C(=O)c2cc(OC)c(OC)c(OC)c2)ccc1Oc1nc(NCCO)nc(N2CCOCC2)n1 [20d]"
recorded_endpoint = "CC50"
uom = "µM"
value_modifier = "="
reported = 42.2

[[record]]
molecule = "CN(C)c1nc(NCCNS(=O)(=O)c2ccc(C3=Nc4c(N)nc(N)nc4NC(c4ccc(Cl)cc4)C3)cc2)nc(Nc2ccc(F)cc2)n1 (stereo not shown) [31e]"
recorded_endpoint = "CC50"
uom = "µM"
value_modifier = ">"
reported = 100

